Source listed as patent US8993585B2.

System: Human primary T cells
Experiment: IL-2 ELISA, Human Primary T Cell, Anti-CD3+CD28+ (Example 3)
Type: cell-based
Conditions: Homo sapiens, T-cell, 24 h, anti-CD3+CD28 stimulation
Procedure: Human primary T cell isolation and culture: Human primary T cells were prepared as follows. […] The cells at the serum:ficoll interface were recovered and washed twice with 5 volumes of PBS. […] The primary T-cells were then washed twice with PBS to remove the IL-2. Primary T cell stimulation and IL2 ELISA: Human primary T cells (100,000 cells per well) were pre-incubated with or without test compound in Yssel's medium for 1 hr at 37° C. […]
readoutType: pIC50
Interpret pIC50 as the negative base-10 log of the concentration measured in mol/L.

Please look at `COc1ccc(Nc2ncc(Cl)c(NC3CC(C)(C)N(C)C(C)(C)C3)n2)cc1Cl` and tell me its recorded pIC50 on Human primary T cells.
7.04

Please look at `COc1cc(Nc2ncc(C(F)(F)F)c(NC3CC(C)(C)N(C)C(C)(C)C3)n2)cc(OC)c1` and tell me its recorded pIC50 on Human primary T cells.
6.63

Please look at `CN1C(C)(C)CC(Nc2nc(Nc3ccc4c(c3)OC(C)(C)C(=O)N4CCCF)ncc2F)CC1(C)C` and tell me its recorded pIC50 on Human primary T cells.
6.43

Please look at `CCN1C(=O)C(C)(C)Oc2cc(Nc3ncc(C#N)c(NC4CC(C)(C)NC(C)(C)C4)n3)ccc21` and tell me its recorded pIC50 on Human primary T cells.
6.83

Please look at `CN1C(=O)C(F)(F)Oc2cc(Nc3ncc(F)c(NC4CC(C)(C)N(C)C(C)(C)C4)n3)cnc21` and tell me its recorded pIC50 on Human primary T cells.
6.02

Please look at `CN1C(C)(C)CC(Nc2nc(Nc3ccc4c(c3)oc(=O)n4CC3CC3)ncc2F)CC1(C)C` and tell me its recorded pIC50 on Human primary T cells.
6.55

Please look at `COc1cc(Nc2ncc(F)c(NC3CC(C)(C)NC(C)(C)C3)n2)cc(OCCN2CCOCC2)c1` and tell me its recorded pIC50 on Human primary T cells.
5.82

Please look at `CN1C(C)(C)CC(Nc2nc(Nc3ccc(OC(F)(F)F)cc3)ncc2F)CC1(C)C` and tell me its recorded pIC50 on Human primary T cells.
5.76

Please look at `COc1cc(Nc2ncc(F)c(N(Cc3ccc(-c4ccccc4)cc3)C3CC(C)(C)N(C)C(C)(C)C3)n2)cc(OC)c1` and tell me its recorded pIC50 on Human primary T cells.
5.62

Please look at CN1CCN(C(=O)C2COc3cc(Nc4ncc(F)c(NC5CC(C)(C)NC(C)(C)C5)n4)ccc3O2)CC1 (stereo not shown) and tell me its recorded pIC50 on Human primary T cells.
4.75

Please look at `CN1C(C)(C)CC(Nc2nc(Nc3ccc(OC(F)(F)F)c(-c4cccnc4)c3)ncc2F)CC1(C)C` and tell me its recorded pIC50 on Human primary T cells.
6.33

Please look at `Cc1nc2ccc(Nc3ncc(F)c(NC4CC(C)(C)N(C)C(C)(C)C4)n3)cc2[nH]1` and tell me its recorded pIC50 on Human primary T cells.
4.91

Please look at `CN1C(C)(C)CC(Nc2nc(Nc3ccc(C#N)c(C#N)c3)ncc2F)CC1(C)C` and tell me its recorded pIC50 on Human primary T cells.
6.61

Please look at `COc1cc(Nc2ncc(OC)c(NC3CC(C)(C)N(C)C(C)(C)C3)n2)cc(OC)c1` and tell me its recorded pIC50 on Human primary T cells.
5.46

Please look at `CC1(C)CC(Nc2nc(Nc3ccc4c(c3)oc(=O)n4CCN3CCOCC3)ncc2C#N)CC(C)(C)N1` and tell me its recorded pIC50 on Human primary T cells.
4.80

Please look at `COc1ccc(Nc2ncc(F)c(NC3CC(C)(C)NC(C)(C)C3)n2)cc1Cl` and tell me its recorded pIC50 on Human primary T cells.
6.31
